Test: Solubility testing of parent and truncated peptides (protocol not stated)
Format: physicochemical
Conditions: protocol not stated; read-out: solubility
Ends that are not written are not given here.
RECORDED_METRIC: solubility

{"SEQUENCE_TEXT": "DVFYNGAYFVSSGKYEGGNIYTKKEAFNVE [CJ1-44]", "VALUE_REPORTED": "< 5000 µg/mL"}

====

Experiment: Solubility, pH range protocol procedure
Format: physicochemical
Conditions: aqueous buffer, pH range pH6 to pH8
Ends that are not written are not given here.

{"SEQUENCE_TEXT": "DEEGAYFVSSGKYEGGNIYTKKEAFNVEDE [CJ1-44.9]", "solubility": "> 5000 µg/mL"}
{"SEQUENCE_TEXT": "KSMKVTVAFNQARK [CJ1-43.50]", "solubility": "> 5000 µg/mL"}

# credit: patent US8540999B2
